Entry source: patent US20190284262A1

# experimental target: T1, HLA-A*02:01 on T2 cells alone (no peptide added) (human)
# T1 construct: TAP-deficient T2 cells without pulsed peptide; negative control target, and the HLA molecule whose stabilisation by peptides is read in the T2 stabilization assay; also called HLA-A*02 molecule; HLA-A2 molecule
# test name: flow cytometry, phage on T2 without peptide; secondary only 100, unstained 99.5
experimental readout: Median:FITC-A
Response field accepts a number only; no unit should be typed.

// solved cases for Median:FITC-A follow
EXT017-21 scFv phage clone (scFv, also called phage clone #21) scFv: SYELTQPPSVSVAPGQTASMTCGGNNIGSKSVHWYQQKPSQAPVMVVHDDSERPSGIPERISGSKSGNTATLTISRVEAGDEADYYCQVWDSSSDHVIFGGGTKLTVLGSRGGGGSGGGGSGGGGSLEMAQVQLVQSGAEVKKPGASVKVSCKASGYTFTNYYIHWVRQAPGQGLEWMGIIRPSGGITNYAQKFQGRVSMTRDTSTSTVYMELSSLRSEDTAVYYCARSWMSDSYYDGWGQGTLVTVSSTSGQAGQHHHHHHGAYPYDVPDYAS; 138
Clone #10 (scFv, also called EXT017-10; EXT017-10 scFv phage clone) scFv (VL-linker-VH-His/HA tag): QAVLTQPPSASGTPGQRVTISCSGGSSNIGVNPVNWYQQLPGTAPKLLIFANYQRPSGVPDRFSGSKSGTSASLAISGLQSDDEAHYYCSTWDDSLNAWLFGGGTKLTVLGSRGGGGSGGGGSGGGGSLEMAEVQLVQSGAEVKKPGDSLRISCQGSGYSFTSYYISWVRQMPGKGLEWMGNIDPSDSYTNYSPSFQGHVTMSVDKSISTAYLQWSSLKASDIAIYYCVRHGFSNSPRLWFDTWGQGTLVTVSSTSGQAGQHHHHHHGAYPYDVPDYAS; 149

For Clone #24 (scFv, also called EXT017-24; EXT017-24 scFv phage clone) scFv (VL-linker-VH-His/HA tag): QAVLTQPPSVSAAPGQKVTISCSGSSSNIGNNYVSWYQQLPGTAPKLLIYDNNKRPSGLPDRFSGSKSGTSATLGITGLQTGDEADYYCGTWDSSLNAVVFGGGTQLTVLSSRGGGGSGGGGSGGGGSLEMAQVQLVQSGAEVKKPGASVKVSCKASGYTFTNYYIHWVRQAPGQGLEWMGIIRPSGGITNYAQKFQGRVTMTRDTSTSTVYMELSSLRSEDTAVYYCARSWSNKLSWYNDGWGQGTLVTVSSTSGQAGQHHHHHHGAYPYDVPDYAS , what is its reported Median:FITC-A?
146

Same read-out for EXT017-17 scFv phage clone (scFv, fusion to the phage coat protein not described; also called EXT017-17 phage; phage clone #17) scFv: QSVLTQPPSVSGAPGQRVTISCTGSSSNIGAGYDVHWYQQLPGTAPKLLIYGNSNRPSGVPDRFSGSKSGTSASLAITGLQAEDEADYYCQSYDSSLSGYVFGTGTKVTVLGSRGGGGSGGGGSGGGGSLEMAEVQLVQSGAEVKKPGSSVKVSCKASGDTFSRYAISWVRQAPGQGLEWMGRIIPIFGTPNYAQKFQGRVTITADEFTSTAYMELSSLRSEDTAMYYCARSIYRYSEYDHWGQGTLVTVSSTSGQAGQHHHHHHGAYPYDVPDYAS ?
151
